# Tested on: Bacillus subtilis
# Method: cleaved RNA product abundance (RNA/gDNA barcode ratio) relative to median wild-type variant (ratio to wild type); higher = more accumulation of the downstream cleavage product
# Stated Conditions: experiment (reporter, strain, medium): exp 4a: truncated aprE reporter, strain BJT201 with 2% xylose (RNase J1 expressed); cleavage site: cggR-gapA (positions -7 to +36 mutated)
Reported Metric: cleaved RNA product abundance

[[record]]
sequence_string = "ACAGACGAAGGAGCCGCAAAGAAGTTATTAAAGGATGAATTATCCCTCAATATAAATATCTCTCACTTATTTAAA"
numeric_value = 0.149

[[record]]
sequence_string = "ACAGACGAAGGAGCCGCAAAGAAGTTATTTAGGGATGAACAATCCCTCAATATAAATATCTCTCACTTATTTAAA"
numeric_value = 0.85

[[record]]
sequence_string = "ACAGACGAAGGAGCCGCAACGAAGTTATTAAGAGATGAATAATCCCTCAATATAAATATCTCTCACTTATTTAAA"
numeric_value = 0.137

[[record]]
sequence_string = "ACAGACGAAGGAGCCGCAAAGAAGTTATTAAGGGATTGAATAATCCCTCAATATAAATATCTCTCACTTATTTAA"
numeric_value = 0.788

[[record]]
sequence_string = "ACAGACGAAGGAGCCGCAAAGAAGTTATTAAGGGATGAATAATCCCTCAAGATAAATATTTCTCACTTATTTAAA"
numeric_value = 0.27

[[record]]
sequence_string = "ACAGACGAAGGAGCCGCAAAGAAGTTATTAAGGGATGAATATTCCCACAATATAAATATCTCTCACTTATTTAAA"
numeric_value = 0.178

[[record]]
sequence_string = "ACAGACGAAGGAGCCGCAAAGAAGTTATTAAGAGGTGAATAATCCCTCAATATAAATATCTCTCACTTATTTAAA"
numeric_value = 0.253

[[record]]
sequence_string = "ACAGACGAAGGAGCCGCAAAGAAGTTATTAAGGGATGAATAATCCATCAATAAAAATATCTCTCACTTATTTAAA"
numeric_value = 0.107

[[record]]
sequence_string = "ACAGACGAAGGAGCCGCAAAGAAATTATTAAGTGATGAATAATCCCTCAATATAAATATCTCTCACTTATTTAAA"
numeric_value = 0.125

[[record]]
sequence_string = "ACAGACGAAGGAGCCGCAAAGAAGTTATTACGGGATGAAAAATCCCTCAATATAAATATCTCTCACTTATTTAAA"
numeric_value = 0.321

[[record]]
sequence_string = "ACAGACGAAGGAGCCGCAAAGAACTTATTAAGGGTTGAATAATCCCTCAATATAAATATCTCTCACTTATTTAAA"
numeric_value = 0.232

[[record]]
sequence_string = "ACAGACGAAGGAGCCGCAAAGAAGTTATAAAGGGATGAATTATCCCTCAATATAAATATCTCTCACTTATTTAAA"
numeric_value = 0.469

[[record]]
sequence_string = "ACAGACGAAGGAGCCGCAAAGAAGTAATTAAGGGATGAATAATCCCTCAATATAAATATCTCTCACTTATTTAAA"
numeric_value = 0.333

[[record]]
sequence_string = "ACAGACGAAGGAGCCGCAAAGAAGTTATTAAGAGATGAATAATCCATCAATATAAATATCTCTCACTTATTTAAA"
numeric_value = 0.19

[[record]]
sequence_string = "ACAGACGAAGGAGCCGCTAAGAAGTTATTAAGTGATGAATAATCCCTCAATATAAATATCTCTCACTTATTTAAA"
numeric_value = 0.167

[[record]]
sequence_string = "ACAGACGAAGGAGCCGCAAAGTAGTTATTTAGGGATGAATAATCCCTCAATATAAATATCTCTCACTTATTTAAA"
numeric_value = 0.869

[[record]]
sequence_string = "ACAGACGAAGGAGCCGCAAAGAAATTATTAAGGGATGAATAATGCCTCAATATAAATATCTCTCACTTATTTAAA"
numeric_value = 0.132

[[record]]
sequence_string = "ACAGACGAAGGAGCCGCAAAGAAGTTATTAAGGGATTAATAATCCCTCAAGATAAATATCTCTCACTTATTTAAA"
numeric_value = 0.254

[[record]]
sequence_string = "ACAGACGAAGGAGCCGCAAAGAAGTTATTAAGGGAATAATAATCCCTCAATATAAATATCTCTCACTTATTTAAA"
numeric_value = 0.934

[[record]]
sequence_string = "ACAGACGAAGGAGCCGCAAAGAATTTATTAAGGGATAAATAATCCCTCAATATAAATATCTCTCACTTATTTAAA"
numeric_value = 0.595

[[record]]
sequence_string = "ACAGACGAAGGAGCCGCAGAGAAGTTATTAAGCGATGAATAATCCCTCAATATAAATATCTCTCACTTATTTAAA"
numeric_value = 0.171

[[record]]
sequence_string = "ACAGACGAAGGAGCCGCAAAGAAGATATTAAGGGATGAATAATCCCTCAACATAAATATCTCTCACTTATTTAAA"
numeric_value = 0.157

[[record]]
sequence_string = "ACAGACGAAGGAGCCGCAAAGAAGTTATTAATGGATGAATAATCCCTCAATATTAATATCTCTCACTTATTTAAA"
numeric_value = 0.0604

[[record]]
sequence_string = "ACAGACGAAGGAGCCGCAAAGAAATTATTAGGGGATGAATAATCCCTCAATATAAATATCTCTCACTTATTTAAA"
numeric_value = 0.586

[[record]]
sequence_string = "ACAGACGAAGGAGCCGCAAAGAAGTTATTAAGGGATGAATAATCCCTGAATATAAATATCTCTCACTTATTTAAA"
numeric_value = 0.684

[[record]]
sequence_string = "ACAGACGAAGGAGCCGCAAGGAAGTTATTAAGGGATGATTAATCCCTCAATATAAATATCTCTCACTTATTTAAA"
numeric_value = 0.959

[[record]]
sequence_string = "ACAGACGAAGGAGCCGCAAAGAAGTTATTAAGGGATGAACAATCACTCAATATAAATATCTCTCACTTATTTAAA"
numeric_value = 0.105

[[record]]
sequence_string = "ACAGACGAAGGAGCCGCAAAGAAGATATTAAGGGATGAATAATCCTTCAATATAAATATCTCTCACTTATTTAAA"
numeric_value = 0.762

[[record]]
sequence_string = "ACAGACGAAGGAGCCGCACAGAAGTCATTAAGGGATGAATAATCCCTCAATATAAATATCTCTCACTTATTTAAA"
numeric_value = 0.43

[[record]]
sequence_string = "ACAGACGAAGGAGCCGCAAAGAAGTTATTAAGGGATGAATAATCCTTCAATATGAATATCTCTCACTTATTTAAA"
numeric_value = 0.18


###

# Tested on: Bacillus subtilis
# Method: cleaved RNA product abundance (RNA/gDNA barcode ratio) relative to median wild-type variant (ratio to wild type); higher = more accumulation of the downstream cleavage product
# Stated Conditions: experiment (reporter, strain, medium): exp 6: tetM reporter, strain 168; cleavage site: cggR-gapA (positions -7 to +36 mutated)
Category | rule: reported cleaved RNA product abundance within range, see LOW = under 0.2, MEDIUM = from 0.2 up to 0.9, HIGH = 0.9 and over

[[record]]
sequence_string = "ACAGACGAAGGAGCCGCAAAGATGTTATTAAGGGATGAATAATCCCTCAATATAAATATCTCTCACTTATTTAAA"
category_label = "HIGH"

[[record]]
sequence_string = "ACAGACGAAGGAGCCGCAAAGAAGTTATTAAGGTATGAATAATCCCTCAATATAAATATCTCTCACTTATTTAAA"
category_label = "LOW"

[[record]]
sequence_string = "ACAGACGAAGGAGCCGCAAAGAAGTTACTAAGGTATGAATAATCCCTCAATATAAATATCTCTCACTTATTTAAA"
category_label = "LOW"

[[record]]
sequence_string = "ACAGACGAAGGAGCCGCAAAGAAGTTATTAAGGTCTGAATAATCCCTCAATATAAATATCTCTCACTTATTTAAA"
category_label = "LOW"

[[record]]
sequence_string = "ACAGACGAAGGAGCCGCAAAGAAGTTATTAAGGGATCAATAATCCCTCAATATAAATATCTCTCACTTATTTAAA"
category_label = "HIGH"

[[record]]
sequence_string = "ACAGACGAAGGAGCCGCAAAGAAGTTATTAAGCCATGAATAATCCCTCAATATAAATATCTCTCACTTATTTAAA"
category_label = "LOW"

[[record]]
sequence_string = "ACAGACGAAGGAGCCGCAAAGAAGTTATTAAGGGATGAATAACCCCTCAATATAAATATCTCTCACTTATTTAAA"
category_label = "MEDIUM"

[[record]]
sequence_string = "ACAGACGAAGGAGCCGCAAAGAAGTTATTAAGTGATGAATAATCCCTCAATAAAAATATCTCTCACTTATTTAAA"
category_label = "LOW"

[[record]]
sequence_string = "ACAGACGAAGGAGCCGCGAAGAAGTTATTAAGGAATGAATAATCCCTCAATATAAATATCTCTCACTTATTTAAA"
category_label = "LOW"

[[record]]
sequence_string = "ACAGACGAAGGAGCCGCAAAGAAGTTATTAAGGGATGAATAATCCCTCAATATAAATACCTCTCACTTATTTAAA"
category_label = "MEDIUM"

[[record]]
sequence_string = "ACAGACGAAGGAGCCGCAAATAAGTTATTAAAGGATGAATAATCCCTCAATATAAATATCTCTCACTTATTTAAA"
category_label = "LOW"

[[record]]
sequence_string = "ACAGACGAAGGAGCCGCACAGAAGTTATTAAGGGATGAATAATCCCTCAATATAAATATCTCTCACTTATTTAAA"
category_label = "HIGH"

[[record]]
sequence_string = "ACAGACGAAGGAGCCGCAAAGAAGTTATTAAGGGATGAAGAATCCCTCAATATAAATATCTCTCACTTATTTAAA"
category_label = "MEDIUM"

[[record]]
sequence_string = "ACAGACGAAGGAGCCGCAAAGAAGTTATTAAGAGATGAATAATCCCTCAATATAAATATCTCTCACTTATTTAAA"
category_label = "LOW"

[[record]]
sequence_string = "ACAGACGAAGGAGCCGCAAAGAAGATATTAAGGGATAAATAATCCCTCAATATAAATATCTCTCACTTATTTAAA"
category_label = "MEDIUM"

[[record]]
sequence_string = "ACAGACGAAGGAGACGCAAAGAAGTTATTAAGGGATGAATAATCCCTCAATATAAATATCTCTCACTTATTTAAA"
category_label = "HIGH"

[[record]]
sequence_string = "ACAGACGAAGGAGCCGCAAAGAAGTTATTACGGGATGAATAATCCCTCAATATAAATATCTCTCACTTATTTAAA"
category_label = "MEDIUM"

[[record]]
sequence_string = "ACAGACGAAGGAGCCGCAAAGAAGTTATTAAGGGATGAATAATCCCTCAATATAAATCTCTCTCACTTATTTAAA"
category_label = "MEDIUM"

[[record]]
sequence_string = "ACAGACGAAGGAGCCGCAAAGAAGTTATTAAGGGATGAATAATCCCTCAATAGAAATATCTCTCACTTATTTAAA"
category_label = "LOW"

[[record]]
sequence_string = "ACAGACGAAGGAGCCGCAAAGAAGTTATTAAGGGATGAATAATACCTCAATATAAATATCTCTCACTTATTTAAA"
category_label = "LOW"

[[record]]
sequence_string = "ACAGACGAAGGAGCCGAATAGAAGTTATTAAGGGATGAATAATCCCTCAATATAAATATCTCTCACTTATTTAAA"
category_label = "MEDIUM"

[[record]]
sequence_string = "ACAGACGAAGGAGCCGTAAAGAAGTTATTAAGGGATGAATAATCCCTCAATATAAATATCTCTCACTTATTTAAA"
category_label = "HIGH"

[[record]]
sequence_string = "ACAGACGAAGGAGCCGCAAAGCAGTTATTAAGGGATGAATAATCCCTCAATATAAATATCTCTCACTTATTTAAA"
category_label = "HIGH"

[[record]]
sequence_string = "ACAGACGAAGGAGCCGCAAAGAAGTTATTAAGGGATGAATAATCCCTCAATATAAATTTCTCTCACTTATTTAAA"
category_label = "MEDIUM"

[[record]]
sequence_string = "ACAGACGAAGGAGCCGCAAGGAAGTTATTAAGGGATGAATAATCCCTCAATATAAATATCTCTCACTTATTTAAA"
category_label = "HIGH"

[[record]]
sequence_string = "ACAGACGAAGGAGCCGCAAAGAAGTTATTAAGGGATGAATTATCCCTCAATATAAATATCTCTCACTTATTTAAA"
category_label = "MEDIUM"

[[record]]
sequence_string = "ACAGACGAAGGAGCCGCAAATAAGTTATTAAGGGATCAATAATCCCTCAATATAAATATCTCTCACTTATTTAAA"
category_label = "MEDIUM"

